# Assay Name: NCI Yeast Anticancer Drug Screen. Data for the sgs1 mgt1 strain (AID 161);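 note: 0% = growth of cultures given vehicle only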
# Condition: S. cerevisiae sgs1 mgt1 strain, at 50.0 µM, stronger effect = higher value
Compounds without any hit were thinned out: in the full panel of roughly 79,000, 15% have a hit.
Recorded growth inhibition values for a group of molecules are listed next.
Entry rule: numbers only, all in %.

Example entries begin here.
1. OCCNCc1ccc2c(c1)OCO2: -9.5
2. CN/N=C(\C(=O)Nc1ccc(C)c(C)c1)C(C(=O)OC)c1nc2ccc([N+](=O)[O-])cc2[nH]c1=O (stereo not given): -19.1
3. NC(=O)C1CCCC1: -5.25
4. CC(=N\N)/C(C)=N/N=C(C)/C(C)=N/N=C(C)/C(C)=N/N=C(C)/C(C)=N/N: 4.9
5. CC(CN(C)C)C(=O)C(=Cc1ccccc1)C(=O)C(C)CN(C)C (stereo not given): 16.9

query: Quick check: growth inhibition of CCC(=O)NC1CCCCC1 ?
result: 19.2
